- Test system: ACHN
- experimentSummary: NCI tumour cell line growth inhibition, 48 h
Calls of active or inactive are those of the source. Rule as the data show it: active = GI50 up to about 1.1 µM and inactive = higher. Non-standard residues stand in square brackets, D forms with d. Residues, ends and D or L forms follow the SMILES beside them. ξ: configuration not given here. *: point of attachment. NMeF = CN[C@@H](Cc1ccccc1)C(=O)O; NMeV = CN[C@H](C(=O)O)C(C)C; ξNMeV = CNC(C(=O)O)C(C)C; Boc = CC(C)(C)OC(=O)*; OBn = c1ccc(CO*)cc1
quantity: GI50

Answered cases to consult:
molecule: C=CCC12CC(=O)CCC1CC(=O)C2 (stereo not given)
systemName: ACHN
GI50: > 100 µM (inactive)
--
molecule: C=CC1=CSNN1
systemName: ACHN
GI50: > 100 µM (inactive)
--
molecule: CC(C)(C)OC(=O)N(CCCN)CCCCN(CCCN)C(=O)OC(C)(C)C
systemName: ACHN
GI50: > 100 µM (inactive)
--
molecule: O=[N+]([O-])C(=C(N1CCCCC1)N1CCCCC1)/C(Cl)=C(\Cl)Br
systemName: ACHN
GI50: 24.9 µM (inactive)
--
molecule: CC(C)C(C(=O)N(C)[C@H](C(=O)N1CCC[C@H]1C(=O)N(C)[C@@H](Cc1ccccc1)C(=O)OCc1ccccc1)C(C)C)N(C)C(=O)[C@@H](NC(=O)OC(C)(C)C)C(C)C (stereo not given in full) (Boc-V[ξNMeV][NMeV]P[NMeF]-OBn)
systemName: ACHN
GI50: > 57.4 µM (inactive)

For the molecule NC(=O)[N+](=CC(=S)Nc1ccccc1Cl)C(N)=O , what GI50 is on record? > 100 µM (inactive)

For the molecule CCOc1ccc2c(c1)[n+]([O-])c(-c1ccc(Br)cc1)c(N)[n+]2[O-] , what GI50 is on record? 47.2 µM (inactive)

For the molecule Cc1cc(C)nc(NS(=O)(=O)c2ccc(NC(=O)c3ccc4nc5ccccc5c(Nc5ccc(S(=O)(=O)N=C(N)N)cc5)c4c3)cc2)n1 , what GI50 is on record? > 100 µM (inactive)

For the molecule CC1=C(C)CC(C#N)(C#N)C(C#N)(C#N)C1 , what GI50 is on record? > 8.79 µM (inactive)

For the molecule O=Cc1c(O)ccc2ccc(O)c(-c3c(O)ccc4ccc(O)cc34)c12 , what GI50 is on record? > 100 µM (inactive)

* * *

Form field: GI50 (one value per entry).
- System: MOLT-4
- experimentSummary: NCI tumour cell line growth inhibition, 48 h
The source made the active and inactive calls. Cut-off read from the data, not from the text of the source: active = GI50 up to about 1.1 µM and inactive = higher.

Answered cases to consult:
itemSmiles: CSc1nc(NC(C)C)c2c(n1)Sc1nc3ccccc3n1N=C2
GI50: 9.84 µM (inactive)
--
itemSmiles: CCCCOP(=O)(OCCCC)/C(C#N)=C/c1ccc(C)o1
GI50: 63.4 µM (inactive)
--
itemSmiles: O=C1N/C(=N\C2CCCCC2)C2(CCN(CCCC3(c4ccc(F)cc4)OCCO3)CC2)N1c1ccccc1
GI50: 15.1 µM (inactive)

// map CC1(C)CN=C(Nc2cccc(C(F)(F)F)c2)S1 to recorded GI50 (system: MOLT-4) > 100 µM (inactive)

// map S=c1[nH]c(=S)c2cc(Sc3ccc4[nH]c(=S)[nH]c(=S)c4c3)ccc2[nH]1 to recorded GI50 (system: MOLT-4) 46.8 µM (inactive)
